// provenance: DBAASP

- Test system: Escherichia coli K-12
endpoint: MIC (µM)
# unit: µM | format: bare number

- structureNotation: "CC[C@H](C)[C@H](NC(=O)[C@@H](NC(=O)[C@H](CO)NC(=O)[C@H](C)NC(=O)[C@@H](NC(=O)[C@H](CCCCN)NC(=O)[C@H](CCCN=C(N)N)NC(=O)[C@@H](NC(=O)[C@@H](NC(=O)[C@H](CC(=O)O)NC(=O)[C@H](Cc1ccccc1)NC(=O)[C@H](CC(C)C)NC(=O)CN)C(C)C)[C@@H](C)CC)C(C)C)C(C)C)C(=O)NCC(=O)NCC(=O)N[C@@H](CC(C)C)C(=O)O"
  unitTag: "µM"
  MIC: 19.5

The reported MIC of the molecule CC[C@H](C)[C@H](NC(=O)CNC(=O)[C@H](CO)NC(=O)[C@H](C)NC(=O)[C@@H](NC(=O)[C@H](CCCCN)NC(=O)[C@H](CO)NC(=O)[C@H](CCSC)NC(=O)[C@H](Cc1c[nH]c2ccccc12)NC(=O)CN)[C@@H](C)CC)C(=O)NCC(=O)N[C@H](C(=O)N[C@@H](Cc1ccccc1)C(=O)N[C@@H](CC(C)C)C(=O)N[C@@H](CO)C(=O)NCC(=O)N[C@@H](CCSC)C(=O)N[C@@H](CCC(N)=O)C(=O)N[C@@H](CCC(N)=O)C(N)=O)[C@@H](C)O was 10

---

# MIC per entry
- Test system: Escherichia coli DH5alpha
# unit: µM | format: bare number

- structureNotation: "CC(C)C[C@H](NC(=O)[C@H](CCCCN)NC(=O)CNC(=O)[C@H](CCCCN)NC(=O)[C@H](CC(C)C)NC(=O)[C@H](CCCCN)NC(=O)[C@H](CC(C)C)NC(=O)[C@H](CCCCN)NC(=O)[C@H](C)NC(=O)CNC(=O)[C@H](CC(C)C)NC(=O)[C@H](CCCCN)NC(=O)[C@H](CC(C)C)NC(=O)[C@H](CCCCN)NC(=O)[C@H](C)NC(=O)[C@H](CC(C)C)NC(=O)[C@H](CCCCN)NC(=O)[C@H](CCCCN)NC(=O)[C@@H](N)CCCCN)C(=O)NCC(=O)N[C@@H](C)C(N)=O"
  unitTag: "µM"
  MIC: 25

Log: Escherichia coli DH5alpha, molecule NCCCC[C@H](NC(=O)[C@H](CCCCN)NC(=O)[C@H](CS)NC(=O)[C@@H]1CSSC[C@H](N)C(=O)N[C@@H](CCCN=C(N)N)C(=O)N[C@@H](Cc2c[nH]c3ccccc23)C(=O)N[C@@H](CCCN=C(N)N)C(=O)N[C@@H](Cc2c[nH]c3ccccc23)C(=O)N[C@@H](CCCCN)C(=O)N1)C(=O)O , MIC = 20

Log: Escherichia coli DH5alpha, molecule CC[C@H](C)[C@H](NC(=O)[C@H](CCCCN)NC(=O)[C@H](CCCCN)NC(=O)[C@@H](N)CCCCN)C(=O)N[C@H](C(=O)N[C@H](C(=O)N[C@H](C(=O)N[C@H](C(=O)N[C@H](C(=O)N[C@@H](CCCCN)C(=O)N[C@@H](CCCCN)C(=O)N[C@@H](CCCCN)C(=O)O)[C@@H](C)CC)[C@@H](C)CC)[C@@H](C)CC)[C@@H](C)CC)[C@@H](C)CC , MIC = 8

Log: Escherichia coli DH5alpha, molecule CC(C)C[C@H](NC(=O)[C@H](CCCCN)NC(=O)[C@H](CCCCN)NC(=O)[C@H](CC(C)C)NC(=O)[C@H](CC(C)C)NC(=O)[C@H](CCCCN)NC(=O)[C@H](CCCCN)NC(=O)[C@H](CC(C)C)NC(=O)[C@H](CC(C)C)NC(=O)[C@H](CCCCN)NC(=O)[C@H](CCCCN)NC(=O)[C@H](CC(C)C)NC(=O)[C@H](CC(C)C)NC(=O)CN)C(N)=O , MIC = 6

---

# MIC per entry
- Tested on: Candida albicans
# unit: µM | format: bare number

Some solved cases for reference:
- compound: "CC[C@H](C)[C@H](NC(=O)[C@H](Cc1ccccc1)NC(=O)[C@@H](N)Cc1ccccc1)C(=O)N[C@@H](Cc1ccc(O)cc1)C(=O)N[C@H](C(=O)N[C@@H](Cc1c[nH]c2ccccc12)C(=O)N[C@@H](CCCN=C(N)N)C(=O)N[C@@H](CCCN=C(N)N)C(=O)N[C@@H](CCCN=C(N)N)C(=O)O)C(C)C [FFIYVWRRR]"
  unitTag: "µM"
  measurement: 7.6
- compound: "CC[C@H](C)[C@H](NC(=O)[C@H](Cc1c[nH]c2ccccc12)NC(=O)[C@H](Cc1c[nH]c2ccccc12)NC(=O)[C@H](CCCCN)NC(=O)[C@H](Cc1c[nH]c2ccccc12)NC(=O)[C@H](CCCN=C(N)N)NC(=O)[C@H](CCCN=C(N)N)NC(=O)[C@H](CCCCN)NC(=O)[C@@H](N)CC(C)C)C(=O)O [LKRRWKWWI]"
  unitTag: "µM"
  measurement: 19.1
- compound: "CC[C@H](C)[C@H](NC(=O)[C@H](CO)NC(=O)[C@@H](NC(=O)[C@H](CCCCN)NC(=O)[C@H](Cc1ccccc1)NC(=O)[C@@H]1CCCN1)[C@@H](C)CC)C(=O)N[C@@H](Cc1cnc[nH]1)C(=O)N[C@@H](CC(C)C)C(N)=O [PFKISIHL]"
  unitTag: "µM"
  measurement: 2.62
- compound: "CC(C)C[C@H](NC(=O)[C@H](Cc1ccccc1)NC(=O)[C@H](CCCCN)NC(=O)[C@H](Cc1c[nH]c2ccccc12)NC(=O)[C@H](Cc1c[nH]c2ccccc12)NC(=O)[C@H](CCCN=C(N)N)NC(=O)[C@H](CCCCN)NC(=O)[C@H](CC(C)C)NC(=O)[C@@H](N)CCCN=C(N)N)C(=O)O [RLKRWWKFL]"
  unitTag: "µM"
  measurement: 9.8
- compound: "CC[C@H](C)[C@H](NC(=O)[C@H](CCCN=C(N)N)NC(=O)[C@H](Cc1c[nH]c2ccccc12)NC(=O)[C@H](CCCN=C(N)N)NC(=O)[C@@H](N)C(C)C)C(=O)N[C@@H](CCCN=C(N)N)C(=O)N[C@H](C(=O)N[C@@H](C)C(=O)N[C@H](C(=O)N[C@H](C(=O)N[C@@H](CCCN=C(N)N)C(=O)N[C@@H](C)C(=O)O)[C@@H](C)CC)C(C)C)C(C)C [VRWRIRVAVIRA]"
  unitTag: "µM"
  measurement: 8.03

The reported MIC of the compound CC(C)C[C@@H]1NC(=O)CNC(=O)[C@H](CO)NC(=O)[C@H](CC(C)C)NC(=O)CNC(=O)[C@@H](NC(=O)[C@H](CC(C)C)NC(=O)[C@@H](NC(=O)[C@H](CCCCN)NC(=O)[C@H](CCCCN)NC(=O)CNC(=O)[C@@H](NC(=O)CNC(=O)[C@H](CC(C)C)NC(=O)[C@@H](NC(=O)CNC(=O)[C@H](CO)NC(=O)[C@H](CC(C)C)NC(=O)[C@H](CC(C)C)NC(=O)CN)C(C)C)C(C)C)C(C)C)CSSC[C@@H](C(=O)O)NC1=O [GLLSGVLGVGKKVLCGLSGLC] was 2.37

The reported MIC of the compound CC[C@H](C)[C@H](NC(=O)[C@H](Cc1c[nH]c2ccccc12)NC(=O)[C@H](CCCCN)NC(=O)[C@H](CCCCN)NC(=O)[C@H](CC(C)C)NC(=O)[C@H](Cc1c[nH]c2ccccc12)NC(=O)[C@H](CCCCN)NC(=O)[C@@H](N)Cc1c[nH]c2ccccc12)C(=O)N[C@@H](CCCCN)C(=O)O [WKWLKKWIK] was 5.8

The reported MIC of the compound CSCC[C@H](NC(=O)[C@@H](NC(=O)[C@@H](N)CCCCN)C(C)C)C(=O)N[C@@H](CCCN=C(N)N)C(=O)N[C@@H](CCCCN)C(=O)N[C@H](C(=O)N[C@@H](CC(C)C)C(=O)NCC(=O)N[C@@H](Cc1ccc(O)cc1)C(=O)N[C@@H](CC(C)C)C(=O)N[C@@H](CCCN=C(N)N)C(=O)N[C@@H](CC(N)=O)C(=O)N[C@H](C(=O)N[C@@H](Cc1ccc(O)cc1)C(=O)N[C@@H](CCCCN)C(N)=O)C(C)C)C(C)C [KVMRKVLGYLRNVYK] was 32

---

# MIC per entry
- Tested on: Micrococcus luteus ATCC 10240
# unit: µM | format: bare number

Some solved cases for reference:
- structureNotation: "CC[C@H](C)[C@H](NC(=O)[C@H](Cc1ccc(O)cc1)NC(=O)[C@@H](NC(=O)[C@@H]1CCCN1C(=O)[C@H](CCCCN)NC(=O)[C@H](CC(N)=O)NC(=O)[C@H](CC(N)=O)NC(=O)CN)C(C)C)C(=O)N1CCC[C@H]1C(=O)N[C@@H](CCCN=C(N)N)C(=O)N1CCC[C@H]1C(=O)N[C@@H](CCCN=C(N)N)C(=O)N1CCC[C@H]1C(=O)N1CCC[C@H]1C(=O)N[C@@H](Cc1cnc[nH]1)C(=O)N1CCC[C@H]1C(=O)N[C@@H](CCCN=C(N)N)C(=O)N[C@@H](CC(C)C)C(=O)N[C@H](C(N)=O)C(C)C"
  unitTag: "µM"
  MIC: 0.109
- structureNotation: "CC(C)C[C@H](NC(=O)[C@H](Cc1c[nH]c2ccccc12)NC(=O)[C@H](CCCCN)NC(=O)[C@H](CC(C)C)NC(=O)[C@H](CC(C)C)NC(=O)[C@H](CCCCN)NC(=O)[C@H](CCCCN)NC(=O)[C@H](CC(C)C)NC(=O)[C@@H](N)CC(C)C)C(=O)N[C@@H](CCCCN)C(=O)N[C@@H](CCCCN)C(N)=O"
  unitTag: "µM"
  MIC: 2.84

The reported MIC of the compound CC[C@H](C)[C@H](NC(=O)[C@H](Cc1ccc(O)cc1)NC(=O)[C@@H](NC(=O)[C@@H]1CCCN1C(=O)[C@H](CCCN=C(N)N)NC(=O)[C@H](CC(N)=O)NC(=O)[C@H](CC(N)=O)NC(=O)CNC(C)=O)C(C)C)C(=O)N1CCC[C@H]1C(=O)N[C@@H](CCCN=C(N)N)C(=O)N1CCC[C@H]1C(=O)N[C@@H](CCCN=C(N)N)C(=O)N1CCC[C@H]1C(=O)N1CCC[C@H]1C(=O)N[C@@H](Cc1cnc[nH]1)C(=O)N1CCC[C@H]1C(=O)N[C@@H](CCCN=C(N)N)C(=O)N[C@@H](CC(C)C)C(N)=O was 0.913
